# credit: PubChem BioAssay (NCATS)

Protocol summary: Cell Viability - LYMP1-003 - Assay at 40 hr (AID 964); note: nearly all actives have a fitted effect of over 60% in size
Details: LYMP1-003 lymphoblastoid viability; series mostly up to 92.2 µM
Records with an inconclusive call do not appear. The source made the active and inactive calls. Calls come from the whole dose curve; as a rule, active = well fitted cell-killing curve with a large enough effect; inconclusive = small, poorly fitted or top-dose-only effect; inactive = flat fitted curve, though single readings scatter.
Assign a class; possible classes are active, inactive

For orientation, consider the following solved cases.
>>> class_label("Cc1ncc([N+](=O)[O-])n1CCO")
"inactive"
>>> class_label("N=C(N)c1ccc(OCCCCCOc2ccc(C(=N)N)cc2)cc1")
"active"
>>> class_label("CN(C)c1ccc(C(=C2C=CC(=[N+](C)C)C=C2)c2ccc(N(C)C)cc2)cc1")
"active"
>>> class_label("C[C@]12C=CC(=O)C=C1CC[C@@H]1[C@@H]2C(=O)C[C@@]2(C)[C@H]1CC[C@]2(O)C(=O)CO")
"inactive"
>>> class_label("NNC(=O)c1ccncc1")
"inactive"
>>> class_label("O=C(N[C@H](CO)[C@H](O)c1ccc([N+](=O)[O-])cc1)C(Cl)Cl")
"inactive"
>>> class_label("Cc1noc(NS(=O)(=O)c2ccc(N)cc2)c1C")
"inactive"

Kindly review the next molecule as well.
Exam item: Hi, sorry to bother you, what did the test record for `O=C(O)c1cc(=O)[nH]c(=O)[nH]1` ?
Marked response: inactive

---

Protocol summary: Quantitative High-Throughput drug screen in 47 multiple myeloma cell lines against the NCATS MIPE library collection: JIM3_ECACC cell viability assay (AID 1918963; note: nearly all actives have a fitted effect of over 35% in size)
Details: JIM3 myeloma viability, CellTiter-Glo ATP, 48 h; series mostly up to 45.8 µM
Results filed as inconclusive are left out. Active and inactive are the calls of the source. Calls follow the shape of the dose curve; as a rule, active = well fitted cell-killing curve with a large enough effect; inconclusive = small, poorly fitted or top-dose-only effect; inactive = no such curve, though single readings can be large or run the other way.
Assign a class; possible classes are TRUE = active, FALSE = inactive

For orientation, consider the following solved cases.
>>> class_label("CC(C)C1CCC(C(=O)N[C@H](Cc2ccccc2)C(=O)O)CC1 (some centres not stated)")
"FALSE"
>>> class_label("CCN(CC)CCn1c(=O)c(Cc2ccc(OC)cc2)nc2ccccc21")
"FALSE"
>>> class_label("CC1=C(C(=O)O)N2C(=O)[C@@H](NC(=O)C(N)c3ccccc3)[C@H]2SC1 (some centres not stated)")
"TRUE"

Exam item: Hi, sorry to bother you, what did the test record for `CCN(C)C(=O)Oc1cccc([C@H](C)N(C)C)c1` ?
Marked response: FALSE

Exam item: Hi, sorry to bother you, what did the test record for CC(=O)CC(c1ccccc1)c1c(O)c2ccccc2oc1=O (configuration not stated) ?
Marked response: FALSE

Exam item: Hi, sorry to bother you, what did the test record for `CC1(C)[C@H](C(=O)O)N2C(=O)C[C@H]2S1(=O)=O` ?
Marked response: FALSE

Exam item: Hi, sorry to bother you, what did the test record for O=C(NCC1CN(c2ccc(N3CCOCC3=O)cc2)C(=O)O1)c1ccc(Cl)s1 (configuration not stated) ?
Marked response: FALSE

Exam item: Hi, sorry to bother you, what did the test record for `Cc1cc(NS(=O)(=O)c2ccc(N)cc2)no1` ?
Marked response: FALSE

Exam item: Hi, sorry to bother you, what did the test record for O=C(O)CSCC(=O)NC1CCSC1=O (configuration not stated) ?
Marked response: FALSE

Exam item: Hi, sorry to bother you, what did the test record for `CNNCc1ccc(C(=O)NC(C)C)cc1` ?
Marked response: FALSE

Exam item: Hi, sorry to bother you, what did the test record for Nc1nc(N)c2nc(CNc3ccc(C(=O)NC(CCC(=O)O)C(=O)O)cc3)cnc2n1 (configuration not stated) ?
Marked response: TRUE

Exam item: Hi, sorry to bother you, what did the test record for `CO[C@@]12[C@H](COC(N)=O)C3=C(C(=O)C(C)=C(N)C3=O)N1C[C@@H]1N[C@@H]12` ?
Marked response: TRUE

Exam item: Hi, sorry to bother you, what did the test record for NS(=O)(=O)c1cc2c(cc1Cl)NC(C(Cl)Cl)NS2(=O)=O (configuration not stated) ?
Marked response: FALSE

Exam item: Hi, sorry to bother you, what did the test record for CCN(CC)CC#CCOC(=O)C(O)(c1ccccc1)C1CCCCC1 (configuration not stated) ?
Marked response: FALSE

Exam item: Hi, sorry to bother you, what did the test record for `O=c1oc2c(O)c(O)cc3c(=O)oc4c(O)c(O)cc1c4c23` ?
Marked response: FALSE

Exam item: Hi, sorry to bother you, what did the test record for `CNS(=O)(=O)CCc1ccc2[nH]cc(C3CCN(C)CC3)c2c1` ?
Marked response: TRUE

Exam item: Hi, sorry to bother you, what did the test record for `CCCCCCNC(=O)n1cc(F)c(=O)[nH]c1=O` ?
Marked response: TRUE

Exam item: Hi, sorry to bother you, what did the test record for `Nc1nc(F)nc2c1ncn2[C@@H]1O[C@H](CO)[C@@H](O)[C@@H]1O` ?
Marked response: TRUE

Exam item: Hi, sorry to bother you, what did the test record for `CN1CCN(c2c(F)cc3c(=O)c(C(=O)O)cn4c3c2OCN4C)CC1` ?
Marked response: FALSE

Exam item: Hi, sorry to bother you, what did the test record for `CC(C)OC(=O)C(C(=O)OC(C)C)=C1SC=CS1` ?
Marked response: FALSE

Exam item: Hi, sorry to bother you, what did the test record for `CC(C)C[C@H](NC(=O)[C@H](CCc1ccccc1)NC(=O)CN1CCOCC1)C(=O)N[C@@H](Cc1ccccc1)C(=O)N[C@@H](CC(C)C)C(=O)[C@@]1(C)CO1` ?
Marked response: TRUE

Exam item: Hi, sorry to bother you, what did the test record for `Cc1onc(-c2ccccc2Cl)c1C(=O)N[C@@H]1C(=O)N2[C@@H]1SC(C)(C)[C@@H]2C(=O)O` ?
Marked response: FALSE

Exam item: Hi, sorry to bother you, what did the test record for CC(C(=O)O)c1ccc2c(c1)CC(=O)c1ccccc1S2 (configuration not stated) ?
Marked response: FALSE

Exam item: Hi, sorry to bother you, what did the test record for `Cc1nnc(NS(=O)(=O)c2ccc(N)cc2)s1` ?
Marked response: FALSE

Exam item: Hi, sorry to bother you, what did the test record for `CCCOc1ccc(C(=O)OCCN(CC)CC)cc1N` ?
Marked response: FALSE

Exam item: Hi, sorry to bother you, what did the test record for `CC(C)(C)C(=O)OCOP(=O)(COCCn1cnc2c(N)ncnc21)OCOC(=O)C(C)(C)C` ?
Marked response: TRUE

Exam item: Hi, sorry to bother you, what did the test record for `Cc1nnc(C(=O)NC(C)(C)c2nc(C(=O)NCc3ccc(F)cc3)c(O)c(=O)n2C)o1` ?
Marked response: FALSE
